experiment: Ratio of AUC in rat brain to plasma at 0.5 mg/kg, iv; type: ADME, organism-based; details: brain and plasma, read-out: Ratio AUC
property.label: Kp
Give bare numbers.

// FC(F)(F)c1cc(-c2n[nH]c3ccnc(NC4CCOCC4)c23)ncn1 : Kp value = 1

====

assay: Clearance in rat at 0.5 mg/kg, iv; type: ADME, organism-based; conditions: in vivo
property.label: clearance (mL/min/kg)
One number for each entry, in mL/min/kg.

Some compounds with recorded clearance:
FC(F)(F)c1cc(-c2n[nH]c3ccnc(NC4CCOCC4)c23)ncn1: 18
CC(C)(O)Cn1cc(-c2n[nH]c3ccnc(OC4CCOCC4)c23)cn1: 30
CC(C)c1nc(-c2n[nH]c3ccnc(NC4CCOCC4)c23)n[nH]1: 35

Would you kindly look at the next entry?
response.value for c1ccc(-c2n[nH]c3ccnc(NC4CCOCC4)c23)nc1 (field: clearance) = 22

====

experiment: Clearance in rat at 0.5 to 1 mg/kg, iv; type: ADME, organism-based; settings: in vivo
Give measured clearance for each item. Keep answers brief.
One number for each entry, in mL/min/kg.

Cc1n[nH]c2ccnc(NC3CCOCC3)c12: 25
c1cc(-c2n[nH]c3ccnc(NC4CCOCC4)c23)cc(N2CCOCC2)n1: 117
c1cc(-c2n[nH]c3ccnc(OC4CCOCC4)c23)cc(N2CCOCC2)n1: 69

So for Cc1n[nH]c2ccnc(OC3CCOCC3)c12 , the logged clearance turned out to be 34

====

molecular target: Leucine-rich repeat serine/threonine-protein kinase 2 (Homo sapiens, UniProt Q5S007, G2019S); assay: Inhibition of recombinant human GST-tagged LRRK2 G2019S mutant catalytic domain (970 to 2527 residues) expressed in insect cells using RtGWWRFYTLRRARQGNTKQR as substrate measured after 180 mins in presence of [gamma33P]ATP by topcount method
Sequence (Q5S007 whole entry G2019S, the tested form may be a part): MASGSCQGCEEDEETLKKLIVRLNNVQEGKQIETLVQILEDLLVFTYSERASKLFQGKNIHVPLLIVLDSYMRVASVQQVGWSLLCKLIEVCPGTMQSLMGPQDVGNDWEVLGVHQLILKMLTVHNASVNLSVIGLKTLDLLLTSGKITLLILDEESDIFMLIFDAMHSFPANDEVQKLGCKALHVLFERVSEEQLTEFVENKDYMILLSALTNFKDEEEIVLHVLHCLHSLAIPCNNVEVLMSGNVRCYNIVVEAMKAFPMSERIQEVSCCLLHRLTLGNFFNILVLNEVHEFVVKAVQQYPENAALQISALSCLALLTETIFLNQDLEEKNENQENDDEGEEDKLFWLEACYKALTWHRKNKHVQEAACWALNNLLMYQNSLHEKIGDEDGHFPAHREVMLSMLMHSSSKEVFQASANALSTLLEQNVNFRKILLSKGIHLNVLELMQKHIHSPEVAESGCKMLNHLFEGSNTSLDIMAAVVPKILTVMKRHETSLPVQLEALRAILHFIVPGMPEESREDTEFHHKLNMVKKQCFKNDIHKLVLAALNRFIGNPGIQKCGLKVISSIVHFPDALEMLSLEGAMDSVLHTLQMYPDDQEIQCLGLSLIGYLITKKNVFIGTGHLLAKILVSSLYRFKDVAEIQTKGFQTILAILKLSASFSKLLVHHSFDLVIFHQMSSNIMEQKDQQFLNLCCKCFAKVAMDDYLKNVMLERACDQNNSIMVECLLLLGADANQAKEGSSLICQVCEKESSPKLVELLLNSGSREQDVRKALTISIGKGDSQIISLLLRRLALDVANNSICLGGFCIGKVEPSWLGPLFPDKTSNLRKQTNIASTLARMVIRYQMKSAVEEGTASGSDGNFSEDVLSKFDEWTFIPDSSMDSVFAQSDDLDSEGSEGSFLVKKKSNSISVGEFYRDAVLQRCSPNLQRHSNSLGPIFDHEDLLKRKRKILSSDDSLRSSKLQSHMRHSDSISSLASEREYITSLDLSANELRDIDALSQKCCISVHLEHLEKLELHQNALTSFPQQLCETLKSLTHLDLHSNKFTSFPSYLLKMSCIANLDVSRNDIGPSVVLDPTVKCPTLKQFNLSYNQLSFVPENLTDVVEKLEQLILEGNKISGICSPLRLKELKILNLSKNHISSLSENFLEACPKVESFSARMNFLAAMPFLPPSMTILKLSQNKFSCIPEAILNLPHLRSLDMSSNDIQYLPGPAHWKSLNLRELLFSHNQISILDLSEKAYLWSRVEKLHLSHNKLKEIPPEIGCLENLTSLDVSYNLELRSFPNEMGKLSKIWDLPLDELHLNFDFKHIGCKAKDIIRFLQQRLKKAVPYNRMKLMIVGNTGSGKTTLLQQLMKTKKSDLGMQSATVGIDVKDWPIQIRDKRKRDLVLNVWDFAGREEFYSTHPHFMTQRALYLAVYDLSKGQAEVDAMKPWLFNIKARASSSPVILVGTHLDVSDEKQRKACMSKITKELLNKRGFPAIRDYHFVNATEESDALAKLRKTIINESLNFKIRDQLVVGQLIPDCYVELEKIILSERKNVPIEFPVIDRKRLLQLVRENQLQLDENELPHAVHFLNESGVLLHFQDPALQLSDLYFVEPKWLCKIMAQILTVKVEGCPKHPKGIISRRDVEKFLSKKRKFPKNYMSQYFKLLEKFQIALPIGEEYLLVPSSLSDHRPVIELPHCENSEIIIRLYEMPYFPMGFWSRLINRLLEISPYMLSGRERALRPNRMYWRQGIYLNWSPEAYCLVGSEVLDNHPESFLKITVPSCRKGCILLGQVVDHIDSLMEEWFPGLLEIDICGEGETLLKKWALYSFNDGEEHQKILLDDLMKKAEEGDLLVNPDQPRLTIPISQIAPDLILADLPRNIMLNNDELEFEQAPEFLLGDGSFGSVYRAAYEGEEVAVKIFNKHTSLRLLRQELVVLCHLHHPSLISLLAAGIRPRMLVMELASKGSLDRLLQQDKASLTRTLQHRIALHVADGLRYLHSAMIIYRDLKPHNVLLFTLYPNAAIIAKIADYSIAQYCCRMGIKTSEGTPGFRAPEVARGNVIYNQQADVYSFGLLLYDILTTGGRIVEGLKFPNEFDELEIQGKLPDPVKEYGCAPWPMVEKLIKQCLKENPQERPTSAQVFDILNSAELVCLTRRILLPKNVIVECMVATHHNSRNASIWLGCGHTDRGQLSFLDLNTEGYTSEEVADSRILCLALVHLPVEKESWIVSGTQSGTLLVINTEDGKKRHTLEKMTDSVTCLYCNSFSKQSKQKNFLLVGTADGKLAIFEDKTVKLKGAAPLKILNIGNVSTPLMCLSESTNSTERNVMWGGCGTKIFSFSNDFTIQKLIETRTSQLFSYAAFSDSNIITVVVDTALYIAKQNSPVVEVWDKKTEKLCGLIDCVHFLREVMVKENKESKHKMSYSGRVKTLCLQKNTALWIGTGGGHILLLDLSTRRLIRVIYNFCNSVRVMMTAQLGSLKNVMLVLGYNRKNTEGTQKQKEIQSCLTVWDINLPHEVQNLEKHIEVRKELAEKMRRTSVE
property.label: pKi
Numbers only, as −log10 of the molar value.

In the examples that follow, each entry is paired with its recorded pKi.
CCc1cc(-c2n[nH]c3ccnc(NC4CCOCC4)c23)nn1C: 9.30
c1ccc(-c2n[nH]c3ccnc(NC4CCOCC4)c23)nc1: 8.51
Cc1n[nH]c2ccnc(OC3CCOCC3)c12: 7.36

Moving on to another molecule below.
// pKi value for c1cc(-c2n[nH]c3ccnc(OC4CCOCC4)c23)cc(N2CCOCC2)n1 : 8.38

Reference for the values: ChEMBL document CHEMBL4330074
